Data provenance is patent US10669284B2.

Biological target: Full-length human MNK2 (Homo sapiens, UniProt Q9HBH9, T379D)
Construct: GST (N); purchased Carna Biosciences 02-146; host or cells: baculovirus expression system
Sequence (Q9HBH9 whole entry T379D): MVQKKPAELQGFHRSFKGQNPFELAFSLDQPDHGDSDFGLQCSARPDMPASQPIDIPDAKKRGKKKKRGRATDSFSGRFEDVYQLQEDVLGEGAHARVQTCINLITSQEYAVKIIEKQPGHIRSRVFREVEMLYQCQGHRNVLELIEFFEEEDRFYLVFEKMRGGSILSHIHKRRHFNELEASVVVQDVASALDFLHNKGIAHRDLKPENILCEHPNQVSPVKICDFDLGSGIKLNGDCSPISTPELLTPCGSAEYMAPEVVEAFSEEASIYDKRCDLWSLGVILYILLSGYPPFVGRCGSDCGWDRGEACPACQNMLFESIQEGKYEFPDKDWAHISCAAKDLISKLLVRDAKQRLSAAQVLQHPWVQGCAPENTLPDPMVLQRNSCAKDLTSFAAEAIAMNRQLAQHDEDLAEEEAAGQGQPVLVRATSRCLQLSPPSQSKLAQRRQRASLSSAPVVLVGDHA
Assay: MNK2 biochemical IC50 assay (Caliper Mobility Shift Assay)
Conditions: read-out: P(IC50) MNK2 (converted)
Item-by-item account of IC50
Numeric only. Scale: nM

See these solved cases before continuing.
Compound	IC50 (nM)
COc1ccc2c(c1)CCN2c1ncnc2sc(C(=O)NCC3CCNCC3)nc12	63.1
CN1CCN(c2ncnc3sc(C(=O)NCC4CCNCC4)nc23)c2ccc(F)cc21	251

Prompt line: Please report the measured IC50 for O=C(NCC1CCNCC1)c1nc2c(Nc3ccc(F)cc3OC3CCCC3)ncnc2s1
Response line: 100

Prompt line: Output measured IC50 for this item: CC(C)Oc1cc(F)ccc1Nc1ncnc2sc(C(=O)N3CCC(CN(C)C)CC3)nc12
Response line: 200

Prompt line: Provide one value: measured IC50 of CN(C)CCNc1nc2c(N3CCc4cc(F)ccc43)ncnc2s1
Response line: 79.4
